The origin of these recorded values is ChEMBL document CHEMBL4699540.

Listing: pKa of selected compounds
# procedure-text: Dissociation constant, pKa of the compound
# Assay type: physicochemical

[
  {
    "smiles-repr": "Nc1nc(OCc2ccccc2)c2[nH]nnc2n1",
    "pKa": 6.6
  },
  {
    "smiles-repr": "Nc1cc(Cc2ccccc2)c2nn[nH]c2n1",
    "pKa": 7.4
  },
  {
    "smiles-repr": "Nc1nc(Cc2ccccc2)c2nn[nH]c2n1",
    "pKa": 6.3
  },
  {
    "smiles-repr": "Nc1nc(NCc2ccccc2)c2nn[nH]c2n1",
    "pKa": 7.8
  }
]

###

A set of molecules tested on Cytochrome P450 2C8 (Homo sapiens, UniProt P10632), with measured IC50:

[
  {
    "smiles-repr": "Nc1nc(OCc2ccccc2)c2[nH]nnc2n1",
    "IC50": "> 10 µM"
  },
  {
    "smiles-repr": "Nc1cc(Cc2ccccc2)c2nn[nH]c2n1",
    "IC50": "> 10 µM"
  }
]
